Tested on: rat cortical neurons
experiment: cells
Assay type: cell-based
assay conditions: Rattus norvegicus, Cortical neurone; in presence of β-amyloid; read-out: apparent EC50 for blocking β-amyloid toxicity
outcome measure: pEC50
pEC50 here: minus log base 10 of the concentration, concentration in moles per litre.

Looking for the measured pEC50 of CC(=O)N[C@@H](CSC(=O)[C@]1([C@@H](O)C(C)C)NC(=O)[C@H](C)[C@@H]1O)C(=O)O [lactacystin] , can you help?
7.52
